assay: CHI Log D procedure; type: physicochemical; conditions: pH 7.4, CHI Log D
measure.name: chromatographic logD
API note: the answer field is a bare number with no unit suffix.

compound	measure.name	readout.value
CC(=O)N1CCC[C@]12CC=CCCCC1(CCCC=CCCCOC(=O)N3CC[C@@](C(=O)N[C@@H](Cc4ccsc4)C(=O)N[C@@H](Cc4csc5ccccc45)C(=O)N[C@@H](CCC(N)=O)C(N)=O)(C3)NC(=O)[C@H](CC(N)=O)NC(=O)[C@H](Cc3ccccc3)NC(=O)[C@H](C)NC(=O)[C@H](C)NC(=O)[C@H](CC(C)C)NC(=O)[C@H](CC(=O)O)NC1=O)NC(=O)[C@H](CC(C)(C)C)NC(=O)[C@H](CC(=O)O)NC2=O (some centres unmarked)	chromatographic logD	2.42
CC(=O)N1CCC[C@]12CC=CCCCC1(CCCC=CCCCOC(=O)N3CC[C@@](C(=O)N[C@@H](Cc4ccccc4Cl)C(=O)N[C@@H](Cc4csc5ccccc45)C(=O)N[C@@H](CCC(N)=O)C(=O)NCCCCCCN)(C3)NC(=O)[C@H](Cc3ccccc3)NC(=O)[C@H](Cc3ccccc3)NC(=O)[C@H](C)NC(=O)[C@H](C)NC(=O)[C@H](CN(CC(=O)O)CC(F)(F)F)NC(=O)[C@H](CC(=O)O)NC1=O)NC(=O)[C@H](CC(C)(C)C)NC(=O)[C@H](CC(=O)O)NC2=O (some centres unmarked)	chromatographic logD	2.61
COCCOCCOCCOCCOCCOCCC(=O)NCCCC[C@@H]1NC(=O)[C@H](C)NC(=O)[C@H](CC(=O)O)NC(=O)[C@H](CC(=O)O)NC(=O)C2(CCCC=CCCCOC(=O)N3CC[C@@](C(=O)N[C@@H](Cc4ccsc4)C(=O)N[C@@H](Cc4csc5ccccc45)C(=O)N[C@@H](CCC(N)=O)C(N)=O)(C3)NC(=O)[C@H](CC(N)=O)NC(=O)[C@H](Cc3ccccc3)NC1=O)CCCC=CC[C@]1(CCCN1C(C)=O)C(=O)N[C@@H](CC(=O)O)C(=O)N[C@@H](CC(C)(C)C)C(=O)N2 (some centres unmarked)	chromatographic logD	1.45
CC(=O)N1CCC[C@]12CC=CCCCC1(CCCC=CCCCCCC[C@@](C)(C(=O)N[C@@H](Cc3ccccc3)C(=O)N[C@@H](Cc3csc4ccccc34)C(=O)N[C@H](CCC(N)=O)C(N)=O)NC(=O)[C@H](CCC(N)=O)NC(=O)[C@H](Cc3ccccc3)NC(=O)[C@H](C)NC(=O)[C@H](C)NC(=O)[C@H](CCC(=O)O)NC(=O)[C@H](CC(=O)O)NC1=O)NC(=O)[C@H](C)NC(=O)[C@H](CC(=O)O)NC2=O (some centres unmarked)	chromatographic logD	2.05

Next compound, chromatographic logD to be filled in.
Query: Reported chromatographic logD for CC(=O)N1CCC[C@]12CC=CCCCC1(CCCC=CCCCOC(=O)N3CC[C@@](C(=O)N[C@@H](Cc4ccccc4Cl)C(=O)N[C@@H](Cc4csc5ccccc45)C(=O)N[C@@H](C(N)=O)[C@H](C)O)(C3)NC(=O)[C@H](CC(C)C)NC(=O)[C@H](Cc3ccccc3)NC(=O)[C@H](C)NC(=O)[C@H](C)NC(=O)[C@H](CCC(=O)O)NC(=O)[C@H](CC(=O)O)NC1=O)NC(=O)[C@H](CC(C)(C)C)NC(=O)[C@H](CC(=O)O)NC2=O (some centres unmarked) : what is it?
Reply: 2.65
